Tested on: Vero
assay.text: Cytotoxicity against African green monkey Vero cells at 100 uM measured after 48 hrs by MTT assay relative to control
Type: cell-based
settings: chlorocebus sabaeus
Collected Activity values appear next to each entry.
# value in %; strip the unit string

See these solved cases before continuing.
| smiles.string | Activity / % |
| --- | --- |
| COc1ccc(-c2noc(CC(=O)Nc3ccc(NC(=O)Cc4onc(-c5ccc(OC)cc5)c4-c4ccc(OC)cc4)cc3)c2-c2ccc(OC)cc2)cc1 | 97 |
| CC(=O)Oc1ccccc1C(=O)O | 95 |
| COc1ccc(-c2noc(CC(=O)O)c2-c2ccc(OC)cc2)cc1 | 91 |
| CCCCC/C=C\C/C=C\C/C=C\C/C=C\CCCC(=O)Nc1ccc(NC(=O)Cc2onc(-c3ccc(OC)cc3)c2-c2ccc(OC)cc2)cc1 | 79 |
| COc1ccc(-c2noc(CC(=O)Nc3ccc(-c4ccc(NC(=O)Cc5onc(-c6ccc(OC)cc6)c5-c5ccc(OC)cc5)cc4)cc3)c2-c2ccc(OC)cc2)cc1 | 92 |

Kindly consider the entry below.
What value of Activity has been reported for the following compound? CCCCC/C=C\C/C=C\C/C=C\C/C=C\CCCC(=O)Nc1ccc(-c2ccc(NC(=O)Cc3onc(-c4ccc(OC)cc4)c3-c3ccc(OC)cc3)cc2)cc1
84
